These data points were gathered from PubChem BioAssay.

The molecules listed here are annotated with their composite z-score.
Test: small molecules captured by biotinylated probe aFGF10 – biochemical, small-molecule microarray, fluorescence 635/667, stem cell growth factor project, primary screen (AID 1071);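 also: score merges 667 nm spot intensity and signal to noise from triplicate slides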
Conditions: higher = more signal
Kindly provide the number alone.

Take a look at these entries with their results.
COc1ccc([Si](C)(C)[C@H]2[C@H](CC(=O)N(CCO)Cc3ccccc3)O[C@@]3(C(=O)N(Cc4cccc(N5C(=O)c6cccc7cccc5c67)c4)c4ccccc43)[C@@H]2C)cc1	0.202
O=c1cccc(-c2ccc3ccccc3c2)o1	-0.183
COC(=O)c1c(CC[C@@H](CO)NC(=O)Nc2ncn[nH]2)oc(C(=O)Cc2ccccc2)c1C(=O)OC	0.511
C#C[C@H](O[Si](C#CCCCCCC)(C(C)C)C(C)C)c1ccccc1	0.323

# get_value(readout='composite z-score', item= "CC(C)N1C(=O)c2ccccc2[C@](C)(C(=O)NC2CC2)[C@@H]1c1ccc(CO)cc1" )
-0.0282

I have this molecule here, CC(C)(C)OC(=O)CC[C@@]1(C(=O)NCC(O)CO)N=C(c2ccc(OCCCO)cc2)O[C@@H]1c1ccccc1 (stereo not given in full) , and I need its recorded composite z-score.
0.0407

Data request, read-out composite z-score, for "CCCC[C@@H]1C[C@H]1[C@@H](NC(=O)c1ccccc1)c1ccc(-c2ccccc2)cc1"
-0.0214
